target entity: A*02:02
measurement protocol: SPR; low fitting confidence
Overview of reported Kd across a group of binders:

Reference set (3 entries):
Which Kd reading was recorded for the binder AS170036 VL1VH1-56N108A (scFv) scFv: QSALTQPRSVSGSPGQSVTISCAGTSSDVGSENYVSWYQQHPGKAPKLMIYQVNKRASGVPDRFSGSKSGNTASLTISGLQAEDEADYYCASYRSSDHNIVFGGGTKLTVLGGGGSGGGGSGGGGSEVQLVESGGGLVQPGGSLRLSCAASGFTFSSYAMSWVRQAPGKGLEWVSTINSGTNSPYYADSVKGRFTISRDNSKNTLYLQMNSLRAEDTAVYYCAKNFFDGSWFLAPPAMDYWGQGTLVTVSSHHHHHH ? > 3.7 µM

// query: AS170036 VL1VH1-57M98Q (scFv) scFv: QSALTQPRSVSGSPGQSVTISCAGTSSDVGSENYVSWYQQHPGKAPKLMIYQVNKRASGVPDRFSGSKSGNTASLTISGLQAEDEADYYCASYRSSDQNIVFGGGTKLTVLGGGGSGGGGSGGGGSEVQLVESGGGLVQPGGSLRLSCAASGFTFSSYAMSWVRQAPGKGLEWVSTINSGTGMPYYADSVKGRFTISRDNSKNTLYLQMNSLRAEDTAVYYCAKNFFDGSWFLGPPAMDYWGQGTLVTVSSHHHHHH > 0.91 µM

// query: AS170036 VL1VH1-56Y98Q108S (scFv) scFv: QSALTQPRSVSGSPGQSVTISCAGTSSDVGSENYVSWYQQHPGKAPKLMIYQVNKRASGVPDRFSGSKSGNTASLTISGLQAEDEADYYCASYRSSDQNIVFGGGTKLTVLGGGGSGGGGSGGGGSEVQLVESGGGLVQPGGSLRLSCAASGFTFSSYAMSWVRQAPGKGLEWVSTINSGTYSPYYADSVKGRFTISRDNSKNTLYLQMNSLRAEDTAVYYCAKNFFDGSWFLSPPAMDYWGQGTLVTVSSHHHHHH > 3.1 µM

More entries:
Which Kd reading was recorded for the binder AS170036 VL1VH1-56Y98I108S (scFv) scFv: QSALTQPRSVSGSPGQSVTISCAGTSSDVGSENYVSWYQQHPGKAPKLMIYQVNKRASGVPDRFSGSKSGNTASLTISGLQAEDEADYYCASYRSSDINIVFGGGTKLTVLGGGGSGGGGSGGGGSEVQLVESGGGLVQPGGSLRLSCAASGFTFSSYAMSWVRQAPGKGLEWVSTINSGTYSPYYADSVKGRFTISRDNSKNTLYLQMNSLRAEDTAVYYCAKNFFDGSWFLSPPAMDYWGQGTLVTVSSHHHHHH ? > 4.5 µM
